The origin of these recorded values is PubChem BioAssay (NCI).

Test system: EKVX NSCLC
Test: NCI-60 one-dose screen, 48 h (100 = growth as untreated, 0 = no growth, -100 = all killed)
Details: 10 µM unless noted
This is part of a sample that, as a whole, favours compounds with a hit. Of some 83,000 tested, about 20% had one in any assay.
Classify: 1 (yes) when growth is strictly less than 90%; 0 (no) when growth is not.

- N#C/C(=C\c1ccc([N+](=O)[O-])cc1)n1nnc2cc(F)c(F)cc21: 1 (yes)
- O=C(Nc1ccccc1[N+](=O)[O-])c1ccc(Cl)c(Cl)c1: 1 (yes)
- COC(=O)c1c2c(n3ccccc13)C(=O)c1ccccc1C2=O: 1 (yes)
- Fc1ccc(Cn2cc(CSc3nc4ccccc4o3)nn2)cc1: 0 (no)
- Cc1ccc(C=C2C(=O)NC(=O)NC2=O)cc1: 0 (no)
- CCCCNc1nnc2n(Cc3ccccc3)c(=O)c3c4c(sc3n12)CCCC4: 1 (yes)
- O=S(=O)(NCCNc1nccc(-c2c(-c3ccc(F)c(O)c3)nc3sccn23)n1)c1ccc(F)cc1: 1 (yes)
- Cc1ccc(S(=O)(=O)c2nc(-c3ccccc3)oc2Sc2nc3ccccc3s2)cc1: 0 (no)
- COc1ccc(-c2n[nH]c(=O)c3nc(NC(=S)Nc4ccc(Oc5ccccc5)cc4)sc23)cc1: 0 (no)
- Cc1cccc(N2CCC(=O)NC2=S)c1: 0 (no)
- C=C(CNCCc1ccc(O)cc1)[C@@H]1CC[C@]2(CO)CC[C@]3(C)[C@H](CC[C@@H]4[C@@]5(C)CCC(=O)C(C)(C)[C@@H]5CC[C@]43C)[C@@H]12: 1 (yes)
- COc1ccc(/C=C2\COc3ccc(O)cc3C2=O)cc1: 0 (no)
- C/C(=N\O)[C@@H]1CC[C@]2(CO)CC[C@]3(C)[C@H](CC[C@@H]4[C@@]5(C)CCCNC(C)(C)[C@@H]5CC[C@]43C)[C@@H]12: 0 (no)
- O=S(=O)(NCCNc1nccc(-c2c(-c3cccc(O)c3)nc3occn23)n1)c1ccc(Br)cc1: 1 (yes)
- O=C(CN1CCN(c2cc3c(cc2F)c(=O)c(C(=O)O)cn3C2CC2)CC1)N/N=C/c1ccco1: 0 (no)
- CC1(C)CC2=C3C=C[C@@H]4[C@@]5(C)CCC(=O)C(C)(C)[C@@H]5CC[C@@]4(C)[C@]3(C)CC[C@@]2(C(=O)O)C[C@H]1O: 1 (yes)
- O=C(c1c[nH]c2ccccc12)c1n[nH]c(=S)n1-c1cccc(Br)c1: 1 (yes)
- Nn1c(=O)c(=O)[nH]c2c(cnn2-c2ccccc2)c1=O: 0 (no)
- CSC(SC)=C(C#N)c1nc2ccccc2s1: 1 (yes)
- C=C1CC[C@@H]2C(C)(C)[C@@H](O)CC[C@@]2(C)[C@@H]1COc1ccc2ccc(=O)oc2c1: 1 (yes)
- CN(CCC(=O)c1ccccc1)CCC(=O)c1ccccc1: 0 (no)
- COc1ccc2[nH]cc(-c3nc(-c4c[nH]c5c(Cl)nccc45)cs3)c2c1: 1 (yes)
- COc1cc(OC)c(/C=C/C(=O)c2c(O)cc(OC)c(C3CCN(C)CC3)c2OC)c(OC)c1: 1 (yes)
- CC[C@]12C=CCN3CC[C@@]4(c5ccc(OC)cc5N(C)[C@H]4[C@@](O)(C(=O)OC)[C@@H]1OC(=O)CCC[P+](c1ccccc1)(c1ccccc1)c1ccccc1)[C@@H]32: 1 (yes)
- FC(F)(F)c1ccc(Cn2cc(CSc3nc4ccccc4s3)nn2)cc1: 0 (no)
- COC(=O)c1c2c(c(C)[n+]([O-])c1C)C(=O)C(NCc1cccc(Cl)c1)=CC2=O: 1 (yes)
- O=c1ccc(=O)n(-c2nc(-c3ccc([N+](=O)[O-])cc3)cs2)[nH]1: 0 (no)
- O=[N+]([O-])c1cc(NS(=O)(=O)c2ccccc2)ccc1NS(=O)(=O)c1ccccc1: 0 (no)
- COc1cccc(C(=O)NNc2nc(Cl)nc(Cl)n2)c1: 0 (no)
- O=S(=O)(Oc1ccc(Br)cc1)c1ccc(Cl)cc1: 0 (no)
- CNCc1cccc2c1OCCOCCOCCNS(=O)(=O)c1ccc(cc1)-c1cnc(N)c(n1)C(=O)N2: 1 (yes)
- CC(C)(C)n1cc(-c2ccnc(NCCCNS(=O)(=O)c3ccc(C(F)(F)F)cc3)c2)c(-c2cccc(F)c2)n1: 1 (yes)
- COc1ccc(-c2nc(/C=C3\C(=O)N(C)c4ccccc43)c3ccccn23)cc1: 0 (no)
- CCN1CCN(c2cc(C)nc(N(CCNc3ccnc4cc(Cl)ccc34)Cc3ccc4c(c3)OCO4)n2)CC1: 1 (yes)
